Task for the reader: assign each of the following compounds its reported inhibition.
Target: UniProt:Q8WTS6
Sequence (Q8WTS6 whole entry): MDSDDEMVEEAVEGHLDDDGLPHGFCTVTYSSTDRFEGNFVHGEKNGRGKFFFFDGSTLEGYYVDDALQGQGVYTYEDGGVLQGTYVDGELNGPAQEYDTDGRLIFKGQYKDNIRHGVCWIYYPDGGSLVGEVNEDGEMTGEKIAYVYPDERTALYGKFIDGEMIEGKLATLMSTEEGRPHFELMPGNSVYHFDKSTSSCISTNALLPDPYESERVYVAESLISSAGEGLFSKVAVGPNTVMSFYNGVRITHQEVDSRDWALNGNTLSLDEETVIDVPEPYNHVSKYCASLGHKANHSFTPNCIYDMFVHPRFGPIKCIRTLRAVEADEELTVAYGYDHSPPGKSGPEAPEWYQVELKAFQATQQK
Experiment: Inhibition of human SET7 overexpressed in Escherichia coli BL21 (DE3) cells at 50 uM preincubated for 15 mins followed by addition of SAM as substrate and biotinylated Histone H3 (1-50) peptide measured after 30 mins by AlphaLISA assay relative to control
State just the number; it will be interpreted in %.

Ask | Consider the compound `C=CC(C)(C)c1cc(/C=C/C(=O)c2ccc(O)cc2)c(OC)cc1O` and give its measured inhibition.
Reply | 39

Ask | Next: `COc1c(O)cc(O)c2c(=O)cc(-c3ccccc3)oc12`
Reply | 4

Ask | Next: `O=c1c(O)c(-c2ccc(O)cc2O)oc2cc(O)cc(O)c12`
Reply | 87

Ask | Next: CCN1CCCC1CNC(=O)c1cc(S(=O)(=O)CC)c(N)cc1OC (centres undefined)
Reply | 3
